Tested on: EKVX NSCLC
Assay: NCI-60 one-dose screen, 48 h (100 = growth as untreated, 0 = no growth, -100 = all killed)
Details: 10 µM unless noted
This is part of a sample that, as a whole, favours compounds with a hit. Of some 83,000 tested, about 20% had one in any assay.
Property: growth (%)
The answer is to be given in %; state only the numeric part.

Compound	growth (%)
C[C@]12CC[C@@H](OC(=O)N(CCCl)N=O)C[C@@H]1CC[C@@H]1[C@@H]2CC[C@]2(C)C(=O)CC[C@@H]12	59.8
O=C/C=C/c1ccco1	100
C[C@]12CC[C@H]3[C@@H](CC=C4c5nc(-c6ccc(Br)cc6)sc5CC[C@@]43C)[C@@H]1CC[C@@H]2O	109
CO/N=C1\CC[C@]2(C)[C@H]3CC[C@]4(C)C(=O)CC[C@H]4[C@@H]3C[C@@H]3SC(N)=N[C@@]32C1	91.8
Cn1cc(-c2csc(-c3cn(CCCCN4CCOCC4)c4ccc(F)cc34)n2)c2cccnc21	72.7

Let's switch to this compound now.
Entry `CC1(C)C=Cc2c(ccc3c2[N+]([O-])=C2C3=C[C@@]34NC(=O)[C@]5(CCCN5C3=O)C[C@@H]4C2(C)C)O1` ; assay system EKVX NSCLC; growth recorded at 34.3

###

System: SNB-19 CNS
Test: NCI-60 one-dose screen, 48 h
Settings: 10 µM unless noted
The panel holds about 83,000 compounds, 20% with a hit somewhere; the sample as a whole holds those more often. The source made the active and inactive calls. Rule for the calls: active = growth percent below 10; inactive = the rest.
Valid outcomes are listed here; reply with one: active, inactive

>>> df
                                   compound  experimental_target  class_name
0  CC(Oc1ccc(-c2ccccc2)cc1)C(=O)O (centres undefined)           SNB-19 CNS    inactive
1  C[C@]12CCC(=O)C[C@@H]1CC[C@@H]1[C@@H]2CC[C@]2(C)[C@@H](OC(=O)N(CCCl)N=O)CC[C@@H]12           SNB-19 CNS    inactive

// next entry
Hi, sorry to bother you, what did the test record for `C[C@]12CCc3sc(Nc4ccc(F)cc4F)nc3C1=CC[C@@H]1[C@@H]2CC[C@]2(C)C(=O)CC[C@@H]12` ?
inactive

###

Tested on: PC-3 prostate
Test: NCI-60 one-dose screen, 48 h (100 = growth as untreated, 0 = no growth, -100 = all killed)
Conditions: 10 µM unless noted
The panel holds about 83,000 compounds, 20% with a hit somewhere; the sample as a whole holds those more often.
Property: growth (%)
The answer is to be given in %; state only the numeric part.

Field: example entries. Status: answers known.
Smiles	Recorded measurement
O=[N+]([O-])c1cc(Cl)c(Cl)c([N+](=O)[O-])c1Cl	66.8
CO[C@H]1[C@H](O[C@@H]2C[C@@H]3C/C=C/C(=O)O[C@@H](CO)C[C@H](O)[C@@H]4C[C@H](C)[C@H](C/C=C\C=C\[C@H](C)C[C@H](C2)O3)O4)O[C@@H](C)[C@H](O)[C@H]1O	35
O=[N+]([O-])c1ccc(CI)cc1	95.6
O=CC1(c2ccccc2)CCN(Cc2ccccc2)CC1	98.1
C[C@@H]1C/C=C\C(=O)O[C@H](/C=C/C#C/C=C/C(C)(C)[C@@H](O)c2cccc(O)c2Br)[C@@H](C)/C=C/[C@H](C)C[C@H](OC(N)=O)C1	33.5
COc1cc(C=C2C(=O)NC(=O)NC2=O)ccc1O	103

Form field growth, entry `CCCCS(=O)(=O)Cl` : 89.6

###

Tested on: KM12 colon
Assay: NCI-60 one-dose screen, 48 h
Details: 10 µM unless noted
The panel holds about 83,000 compounds, 20% with a hit somewhere; the sample as a whole holds those more often. Active and inactive are the calls of the source. How the source made its calls: active means growth percent below 10; inactive means the rest.
Valid outcomes are listed here; reply with one: True = active, False = inactive

Compound	Experimental target	Class name
Nc1nc(=S)nc(N)[nH]1	KM12 colon	False

Hi, sorry to bother you, what did the test record for O=P1(N(CCCl)CCCl)NCCCO1 (centres undefined) ?
False

Hi, sorry to bother you, what did the test record for `OCCNC1CCCCC1` ?
False

Hi, sorry to bother you, what did the test record for `CCOC(=O)P(=O)(OCC)OCC` ?
False

Hi, sorry to bother you, what did the test record for `c1ccc2c(c1)O[As](O[As]1Oc3ccccc3O1)O2` ?
False

Hi, sorry to bother you, what did the test record for `CCOP(=O)(OCC)C(=O)N(CC)CC` ?
False

Hi, sorry to bother you, what did the test record for COC1C(O)CC(OC2CC(Oc3cc4cc5c(c(O)c4c(O)c3C)C(=O)[C@@H](OC3CC(OC4CC(OC6CC(C)(O)C(OC(C)=O)C(C)O6)C(O)C(C)O4)C(O)C(C)O3)[C@H]([C@H](OC)C(=O)[C@@H](O)[C@@H](C)O)C5)OC(C)C2OC(C)=O)OC1C (some centres undefined) ?
True

###

Tested on: HCC-2998 colon
Experiment: NCI-60 one-dose screen, 48 h
Details: 10 µM unless noted
The panel holds about 83,000 compounds, 20% with a hit somewhere; the sample as a whole holds those more often. Active and inactive are the calls of the source. The calls were made as follows: active = growth percent below 10; inactive = the rest.
Valid outcomes are listed here; reply with one: true (1) for active, false (0) for inactive

Consider the worked cases shown below.
Molecule	Class name
CO/N=C1\CC[C@]2(C)[C@H]3CC[C@]4(C)C(=O)CC[C@H]4[C@@H]3C[C@@H]3SC(N)=N[C@@]32C1	false (0)
CC12CCC3C4CCC(=O)C=C4CCC3C1CC1CC(=O)OC12 (stereo not drawn)	false (0)
Oc1cc(N2CC2)c(O)cc1N1CC1	true (1)
CC[C@H](C)[C@H](NC(=O)CN(C)C)C(=O)N(C)[C@H](C[C@@H](OC(C)=O)c1nc(C(=O)NC23C4C5C2C2C3C4C52C(=O)OC)cs1)C(C)C (stereo partly drawn)	false (0)
O=C1CCCCC1CN1CCCCC1 (stereo not drawn)	false (0)
O=NN(c1ccccc1)c1ccccc1	false (0)
CCCCOCCOP(=O)(OCCOCCCC)OCCOCCCC	false (0)

// next entry
Hi, sorry to bother you, what did the test record for `O=C(CBr)OCCOC(=O)CBr` ?
false (0)

###

System: IGROV1 ovarian
Assay: NCI-60 one-dose screen, 48 h (100 = growth as untreated, 0 = no growth, -100 = all killed)
Conditions: 10 µM unless noted
The panel holds about 83,000 compounds, 20% with a hit somewhere; the sample as a whole holds those more often.
# if value of growth reaches 80%, tag met; if it stays below, tag not met

Consider the worked cases shown below.
>>> print(df.to_string())
                                   compound  class_name
0                    O=C(Cc1ccccc1)c1ccccc1         met
1  Cc1ccccc1-n1c(/C=C\c2ccccn2)nc2ccccc2c1=O     not met
2  Cc1ccc(NC2=N[C@]34CC(=O)CC[C@]3(C)[C@H]3CC[C@]5(C)C(=O)CC[C@H]5[C@@H]3C[C@@H]4S2)c(C)c1     not met

// next entry
Say whether `Cc1c2ccncc2c(C)c2c1[nH]c1ccccc12` shows growth of 80% or more.
not met

###

Tested on: OVCAR-4 ovarian
Assay: NCI-60 one-dose screen, 48 h
Details: 10 µM unless noted
The panel holds about 83,000 compounds, 20% with a hit somewhere; the sample as a whole holds those more often. Active and inactive are the calls of the source. The calls were made as follows: active = growth percent below 10; inactive = the rest.
Valid outcomes are listed here; reply with one: yes (1) (active), no (0) (inactive)

Compound	Class name
CCOP(=O)(NC)OCC	no (0)
CC[C@@H](C)C(=O)O[C@H]1[C@H](O)[C@H]2[C@@H](CN3C[C@@H](C)CC[C@H]3[C@@]2(C)O)[C@@H]2C[C@]34O[C@]5(O)[C@@H](OC(=O)[C@@](C)(O)CC)CC[C@@]3(C)[C@@H]5[C@@H](OC(C)=O)[C@@H](OC(C)=O)[C@H]4[C@@]21O	no (0)
CC[C@H](C)[C@H](NC(=O)[C@H]1CCCCN1C)C(=O)N(C)[C@H](CCc1nc(C(=O)N[C@@H](Cc2ccccc2)C[C@H](C)C(=O)O)cs1)C(C)C	no (0)
COC1C(O)CC(OC2CC(Oc3cc4cc5c(c(O)c4c(O)c3C)C(=O)[C@@H](OC3CC(OC4CC(OC6CC(C)(O)C(OC(C)=O)C(C)O6)C(O)C(C)O4)C(O)C(C)O3)[C@H]([C@H](OC)C(=O)[C@@H](O)[C@@H](C)O)C5)OC(C)C2OC(C)=O)OC1C (stereo partly drawn)	yes (1)

Hi, sorry to bother you, what did the test record for `C=C[Se]CC(=O)/C=C/c1ccccc1` ?
no (0)

Hi, sorry to bother you, what did the test record for `O=S(=O)(c1ccc(O)cc1)c1ccccc1O` ?
no (0)

Hi, sorry to bother you, what did the test record for COc1ccc(C(C#N)C(C)=O)cc1 (stereo not drawn) ?
no (0)

Hi, sorry to bother you, what did the test record for `S=P(SP(=S)(c1ccccc1)c1ccccc1)(c1ccccc1)c1ccccc1` ?
no (0)
